Just for reference, ChEMBL document CHEMBL5149988 is where these values come from.

test protocol: Metabolic stability in Sprague-Dawley rat liver microsomes assessed as parent compound remaining incubated for 1 hrs by HPLC analysis
Format: ADME, Microsome
setup conditions: read-out: Stability
reported endpoint: remaining at 1 h

I am curious: what remaining at 1 h value has been reported for `CNc1ncc2cc(-c3ccc(-c4ncccc4F)cc3Cl)c(=O)n(C[C@H]3OC[C@H](N)CO3)c2n1` ?
> 90%
